# inhibition at 5 µM annotations
Tested on: HeLa
Test: Antiproliferative activity against human HeLa cells at 5 uM incubated for 48 hrs by MTT assay relative to control
Type: functional
Your answer should be a plain number; it is taken to be in %.

CN(c1ccc(OC(F)(F)F)cc1)c1nc(C(=O)c2ccccc2)nc2ccc(F)cc12 -3.1

Query block: Please look up its inhibition at 5 µM: `CC(C)[C@H](N)c1nc(N(C)c2ccc(OC(F)(F)F)cc2)c2ccccc2n1`
Result block: 11.3

Query block: Same for `COc1cc(N2CCNCC2)ccc1N(C)c1nc(C(=O)c2ccc(F)cc2)nc2ccccc12`
Result block: 5.2

Query block: Same for `COc1cc(N(C)c2nc(C(=O)c3ccc(F)cc3)nc3ccccc23)ccc1C(=O)O`
Result block: 12.3

Query block: Same for `COC(=O)c1ccc(N(C)c2nc(C(=O)c3ccc(F)cc3)nc3ccccc23)cc1OC`
Result block: 31.2

Recorded values, source ChEMBL document CHEMBL5550093.
